These measurements were taken from patent US6528535B2.

melting point values, listed per item

>>> readout_value("CSc1ccc(C=C2CCc3cc(OCCn4ccnc4)ccc3C2=O)s1 [Example 19]")
"102 to 104 °C"
>>> readout_value("O=C1/C(=C/C=C/c2ccccc2)CCc2cc(OCCn3ccnc3)ccc21 [Example 44]")
"198 to 200 °C"
>>> readout_value("Cc1c(OCCn2ccnc2)ccc2c1CC/C(=C\\c1cccs1)C2=O [Example 48]")
"182 to 184 °C"

Please report the measured melting point for Cc1ccc(C=C2CCc3cc(OCCc4c[nH]cn4)ccc3C2=O)s1 [Example 37]
69 to 70 °C

Please report the measured melting point for O=C1C(=Cc2cccs2)CCc2cc(OCCc3c[nH]cn3)ccc21 [Example 29]
60 to 63 °C

Please report the measured melting point for CC1(C)CC(=O)c2ccc(OCCn3ccnc3)cc2O1 [Example 83]
84 to 86 °C

Please report the measured melting point for CSc1ccc(CC2CCc3cc(OCCn4ccnc4)ccc3C2=O)cc1 (stereo not shown) [Example 10]
114 to 117 °C

Please report the measured melting point for O=C1C(=Cc2cc(Br)cs2)CCc2cc(OCCn3ccnc3)ccc21 [Example 17]
164 to 166 °C

Please report the measured melting point for CSc1ccc(C=C2CCc3cc(OCCc4c[nH]cn4)ccc3C2=O)s1.Cl [Example 32]
168 to 169 °C

Please report the measured melting point for O=C1C(=Cc2ccoc2)CCc2cc(OCCn3ccnc3)ccc21 [Example 23]
116 to 117 °C

Please report the measured melting point for O=C1C(=Cc2ccc([N+](=O)[O-])cc2)CCc2cc(OCCn3ccnc3)ccc21 [Example 7]
184 to 185 °C

Please report the measured melting point for O=C(O)CON=C1CCCc2cc(OCCn3ccnc3)ccc21 [Example 54]
193 to 195 °C

Please report the measured melting point for CCN(CC)C(=O)c1ccc(C=C2CCc3cc(OCCc4c[nH]cn4)ccc3C2=O)cc1.Cl [Example 34]
211 to 213 °C

----------
# tested.target: SF9 affinity purified rat FPT (Rattus norvegicus, UniProt Q02293+Q04631)
# Construct: made in house; host or cells: Sf9 insect cells
# assay.details: PFT (farnesyl protein transferase) inhibitory activity, radiolabeled farnesyl pyrophosphate / biotinyl peptide bead assay
# Assay type: biochemical
# assay.context: average of two tests unless n is given in parentheses; read-out: FTase, IC50
readout.type: IC50 (µM)

a: O=C(O)CON=C1CCCc2cc(OCCn3ccnc3)ccc21
b: O=C1C(=Cc2ccc(-c3cccs3)s2)CCc2cc(OCCn3ccnc3)ccc21
Which of the two gives a bigger number for IC50: a or b ? Write the label of whichever entry you select.
b
(b: 2.8 µM, a: 0.34 µM)

----------
# tested.target: SF9 affinity purified rat FPT (Rattus norvegicus, UniProt Q02293+Q04631)
# Construct: made in house; host or cells: Sf9 insect cells
# assay.details: PFT (farnesyl protein transferase) inhibitory activity, radiolabeled farnesyl pyrophosphate / biotinyl peptide bead assay
# Type: biochemical
# assay.context: Examples 56-74, parallel synthesis array: single test; values adjusted to account for the purity of the sample; read-out: FTase, IC50
readout.type: IC50 (nM)

Recorded IC50, per entry:
>>> readout_value("O=C1/C(=C/c2c(Cl)cccc2Cl)CCc2cc(OCCn3ccnc3)ccc21")
540
>>> readout_value("O=C1/C(=C/c2ccc(F)cc2)CCc2cc(OCCn3ccnc3)ccc21")
180
>>> readout_value("O=C1/C(=C/c2cccc(Cl)c2Cl)CCc2cc(OCCn3ccnc3)ccc21")
570
>>> readout_value("O=C1/C(=C/c2ccccc2Cl)CCc2cc(OCCn3ccnc3)ccc21")
360
>>> readout_value("Cc1cccc(/C=C2\\CCc3cc(OCCn4ccnc4)ccc3C2=O)c1")
1890
>>> readout_value("O=C1/C(=C/c2ccccc2C(F)(F)F)CCc2cc(OCCn3ccnc3)ccc21")
710
>>> readout_value("O=C1/C(=C/c2cc(Cl)cc(Cl)c2)CCc2cc(OCCn3ccnc3)ccc21")
570
>>> readout_value("COc1cccc(/C=C2\\CCc3cc(OCCn4ccnc4)ccc3C2=O)c1")
1140

A: COc1cccc(/C=C2\CCc3cc(OCCn4ccnc4)ccc3C2=O)c1OC
B: O=C1/C(=C/c2ccc(I)cc2)CCc2cc(OCCn3ccnc3)ccc21
Compare IC50: is it lower for A or for B ? Write the label of whichever entry you select.
B
(B: 320 nM, A: 1840 nM)

1: COc1cc(OC)c(/C=C2\CCc3cc(OCCn4ccnc4)ccc3C2=O)c(OC)c1
2: O=C1/C(=C/c2ccc3c(c2)OCO3)CCc2cc(OCCn3ccnc3)ccc21
Compare IC50: is it lower for 1 or for 2 ? Write the label of whichever entry you select.
2

1: COc1ccc(/C=C2\CCc3cc(OCCn4ccnc4)ccc3C2=O)c(OC)c1OC
2: COc1ccc(OC)c(/C=C2\CCc3cc(OCCn4ccnc4)ccc3C2=O)c1
Compare IC50: is it lower for 1 or for 2 ? Write the label of whichever entry you select.
2

a: O=C1/C(=C/c2ccc(Cl)cc2)CCc2cc(OCCn3ccnc3)ccc21
b: CN(C)c1ccc(/C=C2\CCc3cc(OCCn4ccnc4)ccc3C2=O)cc1
c: O=C1/C(=C/c2cccc(Cl)c2)CCc2cc(OCCn3ccnc3)ccc21
d: O=C1/C(=C/c2ccc(Cl)c(Cl)c2)CCc2cc(OCCn3ccnc3)ccc21
Arrange the 4 entries by IC50 so the values rise. Answer format: the labels, in the requested order.
b, a, c, d
